Recorded GOT, one value per entry.
test system: experimental DIC; test: Effect on experimental DIC and MOF (endotoxin-induced); assay type: in vivo, SD-rats; details: Dose 10 μg/kg/min infusion, rat, 4 hours after endotoxin 10 mg/kg
Numeric answer only, unit U/ml assumed.

1. CC(=O)c1ccc(NC(=O)[C@H](Cc2ccc(OCc3ccccn3)cc2)NC(=O)[C@H]2CC[C@H](CN)CC2)cc1: 196
2. NC[C@H]1CC[C@H](C(=O)N[C@@H](Cc2ccc([N+](=O)[O-])cc2)C(=O)Nc2ccc(C(=O)c3ccccc3)cc2)CC1: 302
3. CC(=O)c1ccc(NC(=O)[C@H](Cc2ccc(OCc3cccc(Cl)c3)cc2)NC(=O)[C@H]2CC[C@H](CN)CC2)cc1: 133

Read the next record carefully.
Output measured GOT for this item: `NC[C@H]1CC[C@H](C(=O)N[C@@H](Cc2ccc(OCc3ccccc3)cc2)C(=O)Nc2cccnc2)CC1`
299

----------
test system: experimental pancreatitis; test: Effect on experimental pancreatitis (sodium taurochorate + trypsin into the common bile duct), survival ratio; type: in vivo, SD-rats; parameters: unit not given here; settings: survival ratio, 100 mg/kg p.o. 30 minutes before pancreatitis, rat, after 24 hours
Quantity kind: Effect on experimental pancreatitis (100 mg/kg p.o.) After 24 hours
Please respond with just the number, no unit label.

Below, 3 compounds whose answers are already recorded.
1. NC[C@H]1CC[C@H](C(=O)N[C@@H](Cc2ccc([N+](=O)[O-])cc2)C(=O)Nc2ccc(C(=O)c3ccccc3)cc2)CC1 [Compound 10]: 66.7
2. CC(=O)c1ccc(NC(=O)[C@H](Cc2ccc(OCc3ccccn3)cc2)NC(=O)[C@H]2CC[C@H](CN)CC2)cc1 [Compound 6]: 66.7
3. NCC1CCC(C(=O)NC(Cc2ccc(OCc3ccccn3)cc2)C(=O)Nc2ccc(C(=O)O)cc2)CC1 (stereo not shown) [Compound 20]: 58.3

Read the next record carefully.
Output measured Effect on experimental pancreatitis (100 mg/kg p.o.) After 24 hours for this item: NC[C@H]1CC[C@H](C(=O)N[C@@H](Cc2ccc(OCc3ccccc3)cc2)C(=O)Nc2ccc(CC(=O)O)cc2)CC1 [Compound 8]
58.3

----------
target: human plasmin (Homo sapiens); construct: 50 µl of 0.2 casein units/ml of human plasmin; test: Anti-plasmin activity: inhibition of S-2251 degradation; assay type: biochemical; details: substrate S-2251, 37°C, pH7.4; read-out: Plasmin S-2251 (I50)
Sequence (P00747 581-810 limits assumed): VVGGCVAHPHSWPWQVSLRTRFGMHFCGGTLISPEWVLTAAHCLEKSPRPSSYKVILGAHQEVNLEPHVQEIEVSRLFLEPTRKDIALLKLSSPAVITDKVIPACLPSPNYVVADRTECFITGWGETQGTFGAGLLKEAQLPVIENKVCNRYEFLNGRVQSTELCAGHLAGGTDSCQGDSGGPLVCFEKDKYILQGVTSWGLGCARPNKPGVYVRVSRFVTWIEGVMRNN
Sequence (P00747 97-580 partner limits assumed): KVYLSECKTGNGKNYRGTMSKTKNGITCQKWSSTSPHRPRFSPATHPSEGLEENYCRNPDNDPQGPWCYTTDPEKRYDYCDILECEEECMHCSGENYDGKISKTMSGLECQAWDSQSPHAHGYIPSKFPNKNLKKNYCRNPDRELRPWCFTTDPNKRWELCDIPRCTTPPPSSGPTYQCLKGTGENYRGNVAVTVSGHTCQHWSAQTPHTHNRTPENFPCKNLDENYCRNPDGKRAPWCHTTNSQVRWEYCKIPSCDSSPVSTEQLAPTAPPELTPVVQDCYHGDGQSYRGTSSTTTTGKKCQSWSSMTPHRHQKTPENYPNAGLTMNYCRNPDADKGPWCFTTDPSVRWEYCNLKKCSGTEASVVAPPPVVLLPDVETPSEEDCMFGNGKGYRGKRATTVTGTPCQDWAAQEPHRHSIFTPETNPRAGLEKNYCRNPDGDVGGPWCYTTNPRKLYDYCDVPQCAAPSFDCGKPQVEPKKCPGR
I'd appreciate it if you marked entries met when IC50 is lower than 60 µM and not met when it is not.

// known answers, use as guide
1) NC[C@H]1CC[C@H](C(=O)N[C@@H](Cc2ccc(OCc3ccccc3)cc2)C(=O)Nc2ccc(CC(=O)O)cc2)CC1: met
2) NC[C@H]1CC[C@H](C(=O)N[C@@H](Cc2ccc(OCc3ccccc3)cc2)C(=O)Nc2ccncn2)CC1: met
3) NC[C@H]1CC[C@H](C(=O)N[C@@H](Cc2ccc(OCc3ccccc3)cc2)C(=O)Nc2ccncc2)CC1: met
4) NCC1CCC(C(=O)NC(Cc2ccc(OCc3ccccc3)cc2)C(=O)Nc2ccncc2)CC1 (centres unmarked): not met
5) CC(=O)c1ccc(NC(=O)[C@H](Cc2ccc(OCc3ccccn3)cc2)NC(=O)c2ccc(CN)cc2)cc1: met
6) NCC1CCC(C(=O)NC(Cc2ccc(OCc3ccccn3)cc2)C(=O)Nc2ccc(C(=O)O)cc2)CC1 (centres unmarked): not met
7) NC[C@H]1CC[C@H](C(=O)NC(Cc2cccc(Oc3ccccc3)c2)C(=O)Nc2cccnc2)CC1 (mixture of isomers): not met
8) NC[C@H]1CC[C@H](C(=O)N[C@@H](Cc2ccc(OCc3ccccc3)cc2)C(=O)Nc2ccc(CCC(=O)O)cc2)CC1: met

Determine if CC(=O)c1ccc(NC(=O)[C@@H](Cc2ccc(OCc3ccccn3)cc2)NC(=O)C2CCC(CN)CC2)cc1 (some centres unmarked) shows IC50 strictly lower than 60 µM.
not met

Determine if NCC1CCC(C(=O)NC(Cc2ccccc2)C(=O)Nc2ccc(CC(=O)O)cc2)CC1 (centres unmarked) shows IC50 strictly lower than 60 µM.
not met

Determine if NCC1CCC(C(=O)NC(Cc2ccccc2)C(=O)Nc2ccc(C(=O)O)cc2)CC1 (centres unmarked) shows IC50 strictly lower than 60 µM.
not met

----------
Recorded LD50, one value per entry.
test: in vivo; conditions: mouse, intravenous, ICR male mice, up-and-down method, read-out: Acute toxicity (LD50)
Numeric answer only, unit mg/kg assumed.

Below, 3 compounds whose answers are already recorded.
1) CC(=O)c1ccc(NC(=O)[C@H](Cc2cccc(Oc3ccccc3)c2)NC(=O)[C@H]2CC[C@H](CN)CC2)cc1: 60
2) CCOC(=O)CCc1ccc(NC(=O)C(Cc2ccc(OCc3ccccc3)cc2)NC(=O)C2CCC(CN)CC2)cc1 (centres unmarked): 100
3) NC[C@H]1CC[C@H](C(=O)NC(Cc2cccc(Oc3ccccc3)c2)C(=O)Nc2cccnc2)CC1 (mixture of isomers): 50

Output measured LD50 for this item: `CC(=O)c1ccc(NC(=O)[C@H](Cc2ccc(OCc3ccccn3)cc2)NC(=O)[C@H]2CC[C@H](CN)CC2)cc1`
85

Output measured LD50 for this item: `NC[C@H]1CC[C@H](C(=O)N[C@@H](Cc2ccc(OCc3ccccc3)cc2)C(=O)Nc2ccncc2)CC1`
85

Output measured LD50 for this item: NCC1CCC(C(=O)NC(Cc2ccc(OCc3ccccc3)cc2)C(=O)Nc2ccncc2)CC1 (centres unmarked)
60

Output measured LD50 for this item: `NC[C@H]1CC[C@H](C(=O)N[C@@H](Cc2ccc([N+](=O)[O-])cc2)C(=O)Nc2ccc(C(=O)c3ccccc3)cc2)CC1`
85

Output measured LD50 for this item: N=C(N)c1ccc2cc(OC(=O)c3ccc(N=C(N)N)cc3)ccc2c1 [FUT-175, nafamostat mesilate, reference compound]
24

----------
Recorded LD50, one value per entry.
experiment: in vivo; conditions: mouse, intravenous, ICR male mice, up-and-down method, read-out: Acute toxicity (LD50)
Numeric answer only, unit mg/kg assumed.

Below, 3 compounds whose answers are already recorded.
1) CCOC(=O)c1ccc(OC(=O)CCCCCNC(=N)N)cc1 [FOY, gabexate mesilate, reference compound]: 248
2) NC[C@H]1CC[C@H](C(=O)N[C@@H](Cc2ccc(OCc3ccccc3)cc2)C(=O)Nc2cccnc2)CC1: 70
3) CC(=O)c1ccc(NC(=O)[C@H](Cc2ccccc2)NC(=O)[C@H]2CC[C@H](CN)CC2)cc1: 50

Output measured LD50 for this item: NC[C@H]1CC[C@H](C(=O)NC(Cc2cccc(Oc3ccccc3)c2)C(=O)Nc2ccncc2)CC1 (mixture of isomers)
85

----------
molecular target: human plasma kallikrein (Homo sapiens); construct: 50 µl of 0.12 units/ml human plasma kallikrein solution; experiment: Anti-plasma kallikrein activity: inhibition of S-2302 degradation; type: biochemical; details: substrate S-2302, 37°C, pH 7.8; read-out: Plasma kallikrein S-2302 (I50)
Sequence (P03952 391-638 limits assumed): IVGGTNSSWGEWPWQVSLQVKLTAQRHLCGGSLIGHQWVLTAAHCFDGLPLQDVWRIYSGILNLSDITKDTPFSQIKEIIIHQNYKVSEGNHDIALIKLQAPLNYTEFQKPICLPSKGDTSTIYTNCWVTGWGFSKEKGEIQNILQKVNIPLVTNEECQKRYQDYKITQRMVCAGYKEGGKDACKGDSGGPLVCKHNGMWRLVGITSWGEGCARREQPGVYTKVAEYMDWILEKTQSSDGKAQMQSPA
Sequence (P03952 20-390 partner limits assumed): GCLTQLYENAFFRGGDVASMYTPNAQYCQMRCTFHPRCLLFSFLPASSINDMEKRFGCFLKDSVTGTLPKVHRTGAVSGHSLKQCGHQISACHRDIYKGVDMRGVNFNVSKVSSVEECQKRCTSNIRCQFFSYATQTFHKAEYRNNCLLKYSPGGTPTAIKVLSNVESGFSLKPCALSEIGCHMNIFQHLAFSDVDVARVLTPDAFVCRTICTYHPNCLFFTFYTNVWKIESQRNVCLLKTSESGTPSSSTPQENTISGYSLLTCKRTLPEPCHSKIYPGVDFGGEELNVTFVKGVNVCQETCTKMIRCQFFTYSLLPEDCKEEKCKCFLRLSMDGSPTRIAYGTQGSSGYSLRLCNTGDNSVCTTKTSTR
Quantity kind: IC50 (µM)
Numeric answer only, unit µM assumed.

1) NCC1CCC(C(=O)NC(Cc2ccc(OCc3ccccn3)cc2)C(=O)Nc2ccc(C(=O)O)cc2)CC1 (stereo not shown): 1.4
2) NC[C@H]1CC[C@H](C(=O)N[C@@H](Cc2ccc(OCc3ccccc3)cc2)C(=O)Nc2ccncc2)CC1: 1.2
3) NC[C@H]1CC[C@H](C(=O)NC(Cc2cccc(Oc3ccccc3)c2)C(=O)Nc2cccnc2)CC1 (mixture of isomers): 2
4) NC[C@H]1CC[C@H](C(=O)N[C@@H](Cc2ccc(OCc3ccccc3)cc2)C(=O)Nc2ccc(CC(=O)O)cc2)CC1: 3

Read the next record carefully.
Output measured IC50 for this item: NCC1CCC(C(=O)NC(Cc2ccc(OCc3ccccc3)cc2)C(=O)Nc2ccncc2)CC1 (stereo not shown)
360

----------
Target: human urokinase (Homo sapiens)
Test: Anti-urokinase activity: inhibition of S-2444 degradation
Conditions: substrate S-2444, 37°C, pH 8.8; read-out: Urokinase S-2444 (I50)
Experimental: 3) Assay of anti-urokinase activity Assay method of inhibition of S-2444 degradation The test substance was dissolved in a 0.05 M Tris-HC1 (pH 8.8) buffer to make a total volume of 400 µl, and 50 µl of a 1 mM S-2444 solution was added to the mixture. After incubation at 37°C for 5 minutes in an incubator, an addition of 50 µl of 500 units/ml human urokinase solution, and incubation at 37°C for 5 minutes, the reaction was terminated by an addition of 50 µl of 50% acetic acid.
pIC50: −log10 of the molar value.
Please enter yes (1) where pIC50 is greater than or equal to 4, and no (0) where it is lower.

1) CC(=O)c1ccc(NC(=O)[C@H](Cc2ccc(OCc3ccccn3)cc2)NC(=O)[C@H]2CC[C@H](CN)CC2)cc1 [Compound 6]: yes (1)

Please tell me: is the compound NCC1CCC(C(=O)NC(Cc2ccccc2)C(=O)Nc2ccc(CC(=O)O)cc2)CC1 (stereo not drawn) [Compound 17] at or over 4 in terms of pIC50?
no (0)

Every entry's value here was drawn from patent EP0369035A1.
